- System: FASN mRNA
- Assay procedure: FASN mRNA expression by qRT-PCR in A2780 cells
- Format: cell-based, human
- Particulars: b102: within three days, pelitinib at doses as low as 3 μM
Result type: FASN mRNA expression, effect in words

C#Cc1cccc(Nc2ncnc3cc(OCCOC)c(OCCOC)cc23)c1; effect was also seen
C=CC(=O)Nc1cc2c(Nc3ccc(F)c(Cl)c3)ncnc2cc1OCCCN1CCOCC1; effect was also seen
